Data provenance: patent US20190309059A1

experimental-system: his-labeled human IL-13 (immunogen A) (human) (UniProt P35225)
assay-remarks: ELISA: biotin-labeled immunogen A on streptavidin plate, antibody titrated, HRP secondary antibody, OD450
quantity: EC50 (read off the curve)
Don't forget the unit after the number, please.

Request: Complete the entry with EC50 (read off the curve) for 29D9H8 (lead antibody, mouse hybridoma) (antibody, V domains shown, Mouse monoclonal antibody purified from hybridoma supernatant on Protein G) VH: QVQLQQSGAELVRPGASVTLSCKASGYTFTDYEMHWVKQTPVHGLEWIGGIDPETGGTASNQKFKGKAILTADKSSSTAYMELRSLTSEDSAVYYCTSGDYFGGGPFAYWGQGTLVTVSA VL: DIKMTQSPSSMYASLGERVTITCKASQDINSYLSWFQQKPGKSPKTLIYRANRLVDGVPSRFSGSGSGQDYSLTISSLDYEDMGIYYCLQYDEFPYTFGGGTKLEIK
Response: 0.1 nM
